Tested target: T1, IGF-IIE (amino acids 1-104 of pro-IGF-II) (human, UniProt P01344 25-128)
T1 construct: Biotinylated in the selections; also called IGF-IIE (104aa)
T1 sequence (P01344 25-128): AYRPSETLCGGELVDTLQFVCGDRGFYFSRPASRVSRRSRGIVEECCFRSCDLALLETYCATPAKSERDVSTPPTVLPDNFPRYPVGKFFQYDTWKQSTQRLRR
Experiment description: SPR, IgG on Protein G', then ligand, then BP; competitor BP4; 0 = no significant competition, 5 = competes strongly
Endpoint label: competition score (score 0-5)
// return numeric value only (unit: score 0-5, not printed)

Some binders with known competition score results, for comparison:
Lab note: M0063-F02 IgG (parental) (antibody, V domains shown) VH: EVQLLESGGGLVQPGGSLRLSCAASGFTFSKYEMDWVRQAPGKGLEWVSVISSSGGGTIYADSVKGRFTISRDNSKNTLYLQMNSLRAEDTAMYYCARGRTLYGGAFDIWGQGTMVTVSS VL: DIQMTQSPSSLSASVGDRVTITCRASQPINTYLNWYQQRPGKAPRILIYTSSTLQSGVPSRFSGSGSGTDFTLTISSVQPEDFATYYCQQSYSFPLTFGGGTKVEIK gave competition score of 1

Noted for M0070-H08 IgG (parental) (antibody, V domains shown) VH: EVQLLESGGGLVQPGGSLRLSCAASGFTFSRYWMIWVRQAPGKGLEWVSSIRSSGETKYADSVKGRFTISRDNSKNTLYLQMNSLRAEDTAVYYCARGPLSDYYDSSGYYFDAFDIWGQGTMVTVSS VL: DIQMTQSPSSLSASAGDRVTITCRASQSISSYLNWYQQKPGKAPNLLIYTTSNLQGGVPSRFSGSGSGTDFTLTISSLQPEDFATYYCQQGYSFPLTFGGGTKVEIK : its competition score reads 1

Kindly consider the entry below.
Note to self: competition score recorded for M0064-E04 IgG (parental, non-germlined) (antibody, V domains shown) VH: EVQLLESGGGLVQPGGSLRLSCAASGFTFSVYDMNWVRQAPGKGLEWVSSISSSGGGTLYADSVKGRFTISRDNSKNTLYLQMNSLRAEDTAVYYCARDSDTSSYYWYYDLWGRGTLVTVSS VL: DIQMTQSPSSLSASVGDRVTITCQASHDISNYLNWYQQKPGKAPKLLIYAASRLQSGVPSRFSGGGSGTDFSLTISSLQAEDFATYYCQQSYSFPRTFGQGTNLEIK was 4
